The reported numbers originate from patent US20030133958A1.

System: B-16 melanoma cells
Experiment: Cell-survival rate (cytotoxicity) in B-16 melanoma cell culture
Format: cell-based
Details: mouse, 10 ppm
value type: Cell-Survival Rate
Give the figure together with its unit, number first.

compound | Cell-Survival Rate
C[C@H]1[C@H](C)CC[C@]2(CO)CC[C@]3(C)C(=CC[C@@H]4[C@@]5(C)CC[C@H](O)C(C)(C)[C@@H]5CC[C@]43C)[C@H]12 | 100%
OC[C@H]1O[C@@H](Oc2ccc(O)cc2)[C@H](O)[C@@H](O)[C@@H]1O [Arbutin, reference compound] | 100%
O=c1cc(CO)occ1O [Kojic Acid, reference compound] | 100%
C=C(C)[C@@H]1CC[C@]2(C(=O)O)CC[C@]3(C)[C@H](CC[C@@H]4[C@@]5(C)CC[C@H](O)C(C)(C)[C@@H]5CC[C@]43C)[C@@H]12 | 99%

In: Specify the recorded Cell-Survival Rate for CC1(C)CC[C@]2(CO)CC[C@]3(C)C(=CC[C@@H]4[C@@]5(C)CC[C@H](O)C(C)(C)[C@@H]5CC[C@]43C)[C@@H]2C1 , system: B-16 melanoma cells.
Out: 100%
